# protocol.summary: Inhibitory activity against Protein kinase C beta isoform (PKC) from pig spleen.
For each of the compounds below, state its IC50.
Units required after the number.

compound	experimental.endpoint	result
N=C(N)NCCC[C@H](NC(=O)[C@H](CCCNC(=N)N)NC(=O)[C@H](CCCNC(=N)N)NC(=O)[C@H](CCCNC(=N)N)NC(=O)[C@H](CCCNC(=N)N)NC(=O)[C@H](CCCNC(=N)N)NC(=O)CCCNC(=O)[C@H]1OC(n2cnc3c(N)ncnc32)[C@H](O)[C@@H]1O)C(=O)O (some centres not stated)	IC50	1.5 µM

Just so you know, measured IC50 for C[C@H](NC(=O)CCNC(=O)CCNC(=O)[C@H]1OC(n2cnc3c(N)ncnc32)[C@H](O)[C@@H]1O)C(=O)N[C@@H](CCCNC(=N)N)C(=O)N[C@@H](CCCNC(=N)N)C(=O)N[C@@H](CCCNC(=N)N)C(=O)N[C@@H](CCCNC(=N)N)C(=O)N[C@@H](CCCNC(=N)N)C(=O)N[C@@H](CCCNC(=N)N)C(=O)O (some centres not stated) came out at 2.8 µM
